tested on: MCF7 breast; assay: NCI-60 one-dose screen, 48 h (100 = growth as untreated, 0 = no growth, -100 = all killed); conditions: 10 µM unless noted
Compounds without any hit were thinned out: in the full panel of roughly 83,000, 20% have a hit.
# cutoff 40% applies to growth; >= gives rule met, < gives rule not met

Decide: is the reported value of growth for "Cc1ccc(C(=O)CSc2nc(-c3ccc(Br)cc3)c(C#N)c(=O)[nH]2)cc1" equal to or greater than 40%?
rule met

Decide: is the reported value of growth for "Clc1cc(Cl)cc(Nc2ccc3cc(OCCCN4CCOCC4)ccc3n2)c1" equal to or greater than 40%?
rule not met

Decide: is the reported value of growth for COC(=O)c1ccc(C2Nc3ccc(S(=O)(=O)Nc4ccc(C)c(C)c4)cc3C3OCCC23)cc1 (stereo not given) equal to or greater than 40%?
rule met

Decide: is the reported value of growth for "CCOc1c(C#N)nnc2c(C#N)c(NC(=O)c3ccccc3)nn12" equal to or greater than 40%?
rule met

Decide: is the reported value of growth for COc1cc2c(cc1-c1c(C)noc1C)ncc1nc(C3CCC(F)(F)CC3)n(C3CCC(OC(F)F)CC3)c12 (stereo not given) equal to or greater than 40%?
rule not met

----------
Listed compounds paired with reported growth
Tested on: MCF7 breast
Assay: NCI-60 one-dose screen, 48 h (100 = growth as untreated, 0 = no growth, -100 = all killed)
Conditions: 10 µM unless noted
Method: Growth inhibition of the MCF7 human tumor cell line is measured as a screen for anti-cancer activity. Cells are grown in 96 well plates and exposed to the test compound for 48 hours. Compounds are tested at a single concentration, which is 10^-5 M for most compounds. The reported endpoint is percent growth (GI% or GIPRCNT), where numbers from 0 - 100% represent growth inhibition, and numbers from -100% - 0 represent cell death. For example, a value of 40 represents 60% growth inhibition. […]
The panel holds about 83,000 compounds, 20% with a hit somewhere; the sample as a whole holds those more often.
The figure you give is taken to be in %; do not add the unit.

Consider the worked cases shown below.
O=C(c1ccccc1)c1c(/C=C/c2ccc(Cl)cc2)nc2ccccc2c1/C=C/c1cccs1 ... 92.3
CN(C)CCNc1nc2ccccc2c2c1c1c(n2Cc2ccccc2)-c2ccccc2C1=O ... -93.2
O=C(CSc1nccc(Nc2ccc(S(=O)(=O)Nc3nccs3)cc2)n1)c1ccc(F)cc1 ... 96.9
COc1cc(C(=O)/C=C/c2c(C(F)(F)F)nc3sccn23)cc(OC)c1OC ... 6.82
O=c1[nH]nc(-c2ccccc2)c2c(-c3ccccc3)onc12 ... 25.6
COc1ccccc1N1C(=O)/C(=C/C2=Cc3ccccc3OC2)SC1=S ... 95.5

Given the entry "COc1ccc(C(=O)COc2ccc(/C=C3\Oc4ccccc4C3=O)cc2)cc1" , what growth was observed with MCF7 breast?
115

Given the entry "Cc1c(C(=O)OC(=NC2CCCCC2)NC2CCCCC2)sc2c1c(=O)nc1c(C#N)n[nH]n12" , what growth was observed with MCF7 breast?
103

Given the entry "O=C1/C(=C/c2ccc(F)cc2)C=C(c2ccccc2)N1CCc1ccccc1" , what growth was observed with MCF7 breast?
50.4

Given the entry "C=CCn1c(C)nc2cc(Nc3nc(Cl)nc4ccccc34)ccc21" , what growth was observed with MCF7 breast?
94.6

Given the entry "NCCCNc1nc2ccccc2c2c(=O)c3cccc(Cl)c3sc12" , what growth was observed with MCF7 breast?
-86.6

Given the entry "N=c1sc(Cc2ccc(Cl)cc2)cn1CC(=O)c1ccc(F)cc1" , what growth was observed with MCF7 breast?
55

Given the entry CC1=C([Se]CC(OC(=O)CC[Se]c2ccccc2)C(=O)NCCCCCC(=O)OCc2ccccc2)C(=O)c2ccccc2C1=O (stereo not given) , what growth was observed with MCF7 breast?
30.2
